- system-tested: His-CREBBP (1081-1197) bromodomain (Homo sapiens (Human), UniProt Q92793)
- Sequence (Q92793 1081-1197): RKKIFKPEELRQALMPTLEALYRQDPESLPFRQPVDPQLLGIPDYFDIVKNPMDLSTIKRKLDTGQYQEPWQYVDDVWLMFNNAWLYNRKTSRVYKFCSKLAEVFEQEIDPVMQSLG
- experiment-notes: AlphaScreen in-vitro binding assay for CREBBP
- stated-conditions: biochemical
- Description: AlphaScreen In-Vitro Binding Assay for CREBBP In order to assess bromodomain selectivity, we set up a binding assay using the bromodomain encoded by the CREBBP gene. […] Reactions were incubated at 30° C. for 35 minutes. […] After 60 minutes incubation at room temperature, plates were measured in a Perkin Elmer EnVision multilabel reader. IC50 values were determined from percent inhibition values at different compound concentrations by non-linear regression analysis. […]
As shown below, each of these compounds has a reported IC50 value.
Quick note: give the figure in µM, leave out the unit.

# example entries with known answers
compound	system-tested	reported-value
Cc1nn(C2CC2)c2c1C(c1ccc(OC(F)(F)F)cc1)N(c1cc(C)c(=O)n(C)c1)C2=O (stereo not shown) [Example 95]	His-CREBBP (1081-1197) bromodomain (Homo sapiens (Human), UniProt Q92793)	7.7
COc1ncccc1-n1nc(C)c2c1C(=O)N(c1cc(C)c(=O)n(C)c1)[C@@H]2c1ccc(Cl)cc1 [Example 128]	His-CREBBP (1081-1197) bromodomain (Homo sapiens (Human), UniProt Q92793)	3.7
CCn1nc(C)c2c1C(=O)N(c1cc(C)c3nnc(C)n3c1)C2c1ccc(Cl)cc1F (stereo not shown) [Example 185]	His-CREBBP (1081-1197) bromodomain (Homo sapiens (Human), UniProt Q92793)	14.2

**Q:** Query IC50 on His-CREBBP (1081-1197) bromodomain (Homo sapiens (Human), UniProt Q92793) for CCc1nn(-c2ccnn2C)c2c1C(c1ccc(Cl)cc1)N(c1cc(C)c(=O)n(C)c1)C2=O (stereo not shown) [Example 89]
**A:** 2.5

----------
- system-tested: His-CREBBP (1081-1197) bromodomain (Homo sapiens (Human), UniProt Q92793)
- experiment-notes: AlphaScreen in-vitro binding assay for CREBBP
- stated-conditions: biochemical
property: IC50 (µM)
Write down the numeric answer in µM and omit the unit.

Recorded results for 3 compounds are shown here.
compound	reported-value
COc1ncc(-n2nc3c(c2C(C)C)C(c2ccc(Cl)cc2)N(c2cc(C)c4onc(C)c4c2)C3=O)c(OC)n1 (stereo not shown)	4.7
Cc1c2c(nn1C(C)C)C(=O)N(c1cc(Cl)c(=O)n(C)c1)C2c1ccc(Cl)cc1 (stereo not shown)	0.42
CCc1c2c(nn1CCO)C(=O)N(c1cc(C)c3onc(C)c3c1)C2c1ccc(Cl)cc1 (stereo not shown)	5

With those in mind, consider the next compound.
**Q:** Tell me the measured IC50 of Cc1nn(C)c2c1C(c1ccc(Cl)cc1)N(c1cc(Cl)c(=O)n(C)c1)C2=O (stereo not shown) , please.
**A:** 8.2

----------
Listed here: items and their measured pIC50.
- system-tested: nuclear BRD4-NUT foci in HCC2494 NUT midline carcinoma cells (Homo sapiens (Human), UniProt O60885+Q86Y26)
- experiment-notes: Nut-foci formation assay
- stated-conditions: 24 hours, read-out: HCS Brd4-NUT IC50
Scale note: pIC50 = -log10(concentration in M).

molecule	property	reported-value
CCc1c2c(nn1C(=O)N(C)C)C(=O)N(c1cc(C)c(=O)n(C)c1)C2c1ccc(Cl)cc1 (stereo not shown)	pIC50	6.93
Cn1cc(N2C(=O)c3c(c(C(F)(F)F)nn3C3CC3)C2c2ccc(Cl)cc2)cc(Cl)c1=O (stereo not shown)	pIC50	6.79
CNC(=O)n1nc(C)c2c1C(=O)N(c1cc(C)c(=O)n(C)c1)C2c1ccc(Cl)cc1 (stereo not shown)	pIC50	6.69

**Q:** Which pIC50 is reported for this molecule? COc1ncccc1-n1nc(C)c2c1C(=O)N(c1cc(C)c(=O)n(C)c1)[C@@H]2c1ccc(Cl)cc1
**A:** 7.27

**Q:** Next record, please: CCc1nn(-c2ccnn2C)c2c1C(c1ccc(Cl)cc1)N(c1cc(C)c(=O)n(C)c1)C2=O (stereo not shown)
**A:** 7.35

**Q:** Further, for COc1c2c(nn1C)C(=O)N(c1cc(C)c(=O)n(C)c1)C2c1ccc(Cl)cc1 (stereo not shown) ?
**A:** 7.00

**Q:** Next entry: CC(=O)Nc1cc(N2C(=O)c3c(c(C)nn3C3CC3)C2c2ccc(Cl)cc2)nn2c(C)nnc12 (stereo not shown)
**A:** 6.23
